Origin of measurements: patent US20260356860A1

Assignment: determine reported Average result for the given compounds.
- Tested on: S. aureus (MRSA) (derived from ATCC ® 33593 ™)
- assay.comment: Bacteriostasis, log reduction
- Assay type: cell-based
- experimental.conditions: S. aureus (MRSA) ATCC 33593; 72 h

O=c1[nH]c(-c2ccc(B(O)O)cc2)nc2c1CSCC2 [Compound 1]    4.0 × 10^4
O=c1[nH]c(-c2ccc(-c3ccc(Br)nc3)cc2)nc2c1CSCC2 [Compound 7]    1.4 × 10^5
CC(C)(OCCO)c1ccc(-c2nc3c(c(=O)[nH]2)CSCC3)cc1 [Compound 8]    1.0 × 10^6
Oc1nc(-c2ccc(C(F)(F)F)cc2)nc2c1CSCC2 [XAV939, reference compound]    <6.8 × 10^3
O=c1[nH]c(-c2ccc(-c3ccc(B(O)O)cc3)cc2)nc2c1CSCC2 [Compound 10]    2.7 × 10^3

Task: Form: Entry = COC(=O)NCCOC(C)(C)c1ccc(-c2nc3c(c(=O)[nH]2)CSCC3)cc1 [Compound 18] | System = S. aureus (MRSA) (derived from ATCC ® 33593 ™) | Average result = ____
Result: <200
